system: Danio rerio Tg(wt1b:EGFP) embryo, pronephros; assay: glomerular separation, fold change vs DMSO control; higher = glomeruli further apart (abnormal); settings: 25 µM; exposure: 24-48 hpf
Where a name gives a salt, the structure may show the parent alone.
Please note: rule met applies when glomerular separation is 1 or greater, and rule not met applies otherwise.

# compound, label
measured = [
    ("O=C(C1CCCCC1)N1CC(=O)N2CCc3ccccc3C2C1 (stereo not given)", "rule met"),
    ("Nc1c(Br)cc(Br)cc1CN[C@H]1CC[C@H](O)CC1 [Ambroxol hydrochloride]", "rule met"),
    ("CO/N=C(\\C(=O)N[C@@H]1C(=O)N2C(C(=O)O)=C(C[N+]3(C)CCCC3)CS[C@H]12)c1csc(N)n1 [Cefepime hydrochloride]", "rule not met"),
    ("Clc1ccc(CCC(Cn2ccnc2)Sc2c(Cl)cccc2Cl)cc1 (stereo not given) [Butoconazole nitrate]", "rule met"),
    ("NC(CO)C(=O)NNCc1ccc(O)c(O)c1O (stereo not given) [Benserazide hydrochloride]", "rule met"),
    ("CN(C)CCOC(c1ccccc1)c1ccccc1.Cn1c(=O)c2[nH]c(Cl)nc2n(C)c1=O [Dimenhydrinate]", "rule met"),
    ("C#C[C@]1(O)CC[C@H]2[C@@H]3CCC4=CC(=O)CC[C@@H]4[C@H]3CC[C@@]21C", "rule not met"),
    ("CNCCC=C1c2ccccc2CCc2ccccc21 [Nortriptyline hydrochloride]", "rule met"),
    ("Nc1nc(Cl)nc2c1ncn2[C@H]1C[C@H](O)[C@@H](CO)O1", "rule not met"),
    ("COc1cc(C(=O)NS(=O)(=O)c2ccccc2C)ccc1Cc1cn(C)c2ccc(NC(=O)OC3CCCC3)cc12", "rule not met"),
    ("CC(=O)OCC(=O)[C@@]12OC(C)(C)O[C@@H]1C[C@H]1[C@@H]3C[C@H](F)C4=CC(=O)C=C[C@]4(C)[C@@]3(F)[C@@H](O)C[C@@]12C [Fluocinonide]", "rule met"),
    ("CCOC(=O)O[C@]1(C(=O)OCCl)CC[C@H]2[C@@H]3CCC4=CC(=O)C=C[C@]4(C)[C@H]3[C@@H](O)C[C@@]21C [Loteprednol etabonate]", "rule met"),
    ("CC(C)(C)C(=O)OCOC(=O)[C@@H]1N2C(=O)[C@@H](/N=C/N3CCCCCC3)[C@H]2SC1(C)C [Pivmecillinam hydrochloride]", "rule not met"),
    ("COC(=O)[C@H](c1ccccc1Cl)N1CCc2sccc2C1", "rule met"),
    ("C#C[C@]1(O)CC[C@H]2[C@@H]3CCC4=C(CCC(=O)C4)[C@H]3CC[C@@]21C", "rule met"),
]
